Assign CC50 at 24 h to each entry below.
PROTOCOL: Cytotoxicity against human L02 cells assessed as reduction in cell viability measured after 24 hrs by Celltiter-glo assay
Type: cell-based

Answer with the recorded CC50 at 24 h for the compound listed here: C=C1CC[C@@H]2[C@](C)(CO)[C@H](O)CC[C@@]2(C)[C@@H]1C/C=C1/C(=O)OC[C@H]1O [ANDROGRAPHOLIDE]
14.7 µM

// Input: C=C1CC[C@@H]2[C@](C)(CO)[C@H](O)CC[C@@]2(C)[C@@H]1C/C=C/C(C)=O . Output its CC50 at 24 h only.
30.1 µM

* * *

Task for the reader: assign each of the following compounds its reported K.
PROTOCOL: GSH reactivity in PBS assessed as GSH adduct formation measured up to 8 hrs by HPLC-MS analysis
Format: ADME
CONDITION LABEL: buffer
// units = M⁻¹ s⁻¹; emit number, no label

Report K, nothing else, for this compound: C=C1CC[C@@H]2[C@](C)(CO)[C@H](O)CC[C@@]2(C)[C@@H]1C/C=C1/C(=O)OC[C@H]1O [ANDROGRAPHOLIDE]
2.44e-05

Tell me measured K for C=C1CC[C@@H]2[C@](C)(CO)[C@H](O)CC[C@@]2(C)[C@@H]1C/C=C/C(C)=O please.
2.11e-05

Using known records, supply K for C=C1CC[C@@H]2[C@](C)(CO)[C@H](O)CC[C@@]2(C)[C@@H]1C/C=C/C(=O)c1ccccc1
6.036e-05

Hello, please tell me recorded K for this one: C=C1CC[C@@H]2[C@](C)(CO)[C@H](O)CC[C@@]2(C)[C@@H]1C/C=C1\C=COC1=O
0.003539
